tested on: Escherichia coli ATCC 11229; assay: E. coli kill in acid/SLS solutions with and without salt; assay type: cell-based; conditions: only the salt and no other ingredient
Give kill of E. coli by solution containing only the salt for every item shown.
Answers are plain numbers, in %.

compound: O=S(=O)([O-])[O-].[Mg+2] [Magnesium sulfate]
assay_target: Escherichia coli ATCC 11229
value_units: %
result_value: 10

compound: [Cl-].[Cl-].[Mg+2] [Magnesium chloride]
assay_target: Escherichia coli ATCC 11229
value_units: %
result_value: 61

# evaluate next
Return reported kill of E. coli by solution containing only the salt; argument: [Ca+2].[Cl-].[Cl-] [Calcium chloride] 26
